- Tested on: HL-60(TB) leukemia
- Assay protocol: NCI tumour cell line growth inhibition, 48 h
Value kind: TGI

INSERT INTO results (molecule, reported_value) VALUES
  ('COc1ccc(CN2C(=O)[C@@H]3Cc4c(OC)c(C)c(OC)c(OC)c4[C@H](/C2=C\c2cc(OC)c(OC)c(C)c2OC)N3C(=O)OC(C)C)cc1', '> 100 µM'),
  ('ICC1CCCO1 (stereo not drawn)', '> 100 µM'),
  ('C=C1N(S(=O)(=O)c2ccc(C)cc2)C(=O)OCC12CCCC2', '> 100 µM');

---

- Tested on: M19-MEL melanoma
- Assay protocol: NCI tumour cell line growth inhibition, 48 h
Value kind: TGI

INSERT INTO measurements (molecule, value_kind, reported_value) VALUES
  ('COc1cccc(NC(=O)CSc2nnc(Cc3ccccc3)o2)c1', 'TGI', '> 100 µM'),
  ('CC1(C)C(=O)OC(n2cc(F)c(=O)[nH]c2=O)C1=O (stereo not drawn)', 'TGI', '> 100 µM'),
  ('CC1(C)c2ccccc2N2C(c3ccccc3)=NOC21C (stereo not drawn)', 'TGI', '> 100 µM');

---

- Test system: NCI-H460 lung
- Assay protocol: NCI tumour cell line growth inhibition, 48 h
Value kind: TGI

INSERT INTO measurements (compound, value_kind, reported_value) VALUES
  ('[N-]=[N+]=NC1C(O)C(CO)OC1n1ccc(N)nc1=O (stereo not given)', 'TGI', '> 625 µM'),
  ('COc1cccc(NC(=O)CSc2nnc(Cc3ccccc3)o2)c1', 'TGI', '> 100 µM'),
  ('O=C1c2ccccc2C(=O)N1CCCOCc1c[nH]c(=O)[nH]c1=O', 'TGI', '> 100 µM'),
  ('NC(=O)c1c(NC(=O)c2cccs2)sc2c1CCC(=O)C2', 'TGI', '> 100 µM'),
  ('O=C(O)c1ccc2c(c1)C(=O)N(c1ccc(S(=O)(=O)c3ccc(N4C(=O)c5ccc(C(=O)O)cc5C4=O)cc3)cc1)C2=O', 'TGI', '> 100 µM');

---

- System: SK-MEL-5 melanoma
- Assay protocol: NCI tumour cell line growth inhibition, 48 h
Below, each entry is listed alongside its reported TGI.
Value kind: TGI

INSERT INTO assay_data (sample_smiles, reported_value) VALUES
  ('Cc1nc2nc(C)n(CCN3CCOCC3)c(=O)c2c(-c2cccc([N+](=O)[O-])c2)c1C(=O)CCCCCCCCCCN1CCC(c2ccccc2)(c2ccccc2)CC1', '4.3 µg/mL'),
  ('O=C(O)c1ccc2c(c1)C(=O)N(c1ccc(S(=O)(=O)c3ccc(N4C(=O)c5ccc(C(=O)O)cc5C4=O)cc3)cc1)C2=O', '> 100 µM'),
  ('O/N=C(\CC(O)(C(F)(F)F)C(F)(F)F)c1cccs1', '> 10 µM'),
  ('COC(=O)[C@@H]1CN(C(=O)CCc2ccccc2)C(=O)N1', '> 100 µM');

---

Below, each entry is listed alongside its reported TGI.
- System: SK-MEL-5 melanoma
- Assay protocol: NCI tumour cell line growth inhibition, 48 h
Value kind: TGI (µM)

INSERT INTO measurements (sample_smiles, value_kind, censoring_qualifier, reported_value) VALUES
  ('COc1ccc(CN2C(=O)[C@@H]3Cc4c(OC)c(C)c(OC)c(OC)c4[C@H](/C2=C\c2cc(OC)c(OC)c(C)c2OC)N3C(=O)OC(C)C)cc1', 'TGI', '>', 100),
  ('Cn1[nH]cc2ccc3nc4ccccc4c(=O)c3c21', 'TGI', '=', 35.1),
  ('C=C(COCO)C(C)=O', 'TGI', '=', 31.5),
  ('C[N+](C)(C)CC(=O)N/N=C(\Cc1nc2ccc([N+](=O)[O-])cc2[nH]c1=O)C(=O)Nc1nc2ccc([N+](=O)[O-])cc2s1', 'TGI', '>', 100),
  ('CN(C)c1ccc(/C=C(\C#N)c2cc3ccccc3[nH]2)cc1', 'TGI', '=', 32.8);
